System: PPARg DBDmut IVT, anti-PPARg (DBD mutation: PPARg1 K132A/R137A, NR concentration 270 nM)
Assay: PBM binding z-score (relative to random genomic background probes); higher = stronger binding; sequences stand for … in GC…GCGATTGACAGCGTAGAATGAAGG
Decision: PBM binding z-score compared against 0.5; not below it gives T, below it gives F.

Below, 3 sequences whose answers are already recorded.
Lookup: Exam item: decide whether the reported PBM binding z-score for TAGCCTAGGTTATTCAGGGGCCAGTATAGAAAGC is at least 0.5.
Found: F

Lookup: Is PBM binding z-score at least 0.5? Consider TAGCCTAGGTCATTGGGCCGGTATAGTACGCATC
Found: F

Lookup: Is the recorded value of PBM binding z-score equal to or greater than 0.5 for this sequence? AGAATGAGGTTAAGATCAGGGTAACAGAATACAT
Found: T

Continuing:
Lookup: Does the reported PBM binding z-score for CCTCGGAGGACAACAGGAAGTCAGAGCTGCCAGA fall at or above the 0.5 mark?
Found: F

Lookup: Does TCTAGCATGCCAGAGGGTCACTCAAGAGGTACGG have a reported PBM binding z-score of at least 0.5?
Found: F

----------
We begin with a simple list: items and their reported PBM binding z-score.
Tested on: RARa:RXR (NR concentration 270 nM, RXRa partner concentration 90 nM)
Experiment: PBM binding z-score (relative to random genomic background probes); higher = stronger binding; sequences stand for … in GC…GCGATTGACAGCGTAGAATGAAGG
Answer field: number only, no words.

Worked cases, PBM binding z-score given:
Lookup: For the sequence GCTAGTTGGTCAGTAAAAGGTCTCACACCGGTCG , what PBM binding z-score is on record?
Found: 0.298

Lookup: Data request, read-out PBM binding z-score, for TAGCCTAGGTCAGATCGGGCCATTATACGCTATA
Found: 1.33

Lookup: For the sequence shown here, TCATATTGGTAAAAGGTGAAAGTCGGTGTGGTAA , give the reported PBM binding z-score.
Found: 2.1

New cases:
Lookup: Using the record for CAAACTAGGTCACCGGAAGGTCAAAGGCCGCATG , report its PBM binding z-score.
Found: 7.5

Lookup: # get_value(readout='PBM binding z-score', item= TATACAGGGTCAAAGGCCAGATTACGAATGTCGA )
Found: 6.01

----------
System: PPARg:RXRa 30nM:10nM, anti-RXR (NR concentration 30 nM, RXRa partner concentration 10 nM)
Assay: PBM binding z-score (relative to random genomic background probes); higher = stronger binding; sequences stand for … in GC…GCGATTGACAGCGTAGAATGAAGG
reported_endpoint: PBM binding z-score
Keep the answer to the number alone.

Lookup: Recorded PBM binding z-score of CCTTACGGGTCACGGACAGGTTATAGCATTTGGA , please.
Found: 3.37

Others:
Lookup: Look at this sequence and give its reported PBM binding z-score. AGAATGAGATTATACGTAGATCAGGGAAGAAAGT
Found: 0.419

Lookup: Please report the recorded PBM binding z-score for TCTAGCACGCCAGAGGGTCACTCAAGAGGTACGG .
Found: 1.71

Lookup: Report PBM binding z-score for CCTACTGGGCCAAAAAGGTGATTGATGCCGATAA please.
Found: -0.119

Lookup: // PBM binding z-score lookup, key: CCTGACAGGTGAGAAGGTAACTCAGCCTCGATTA
Found: -0.205

Lookup: For the sequence shown here, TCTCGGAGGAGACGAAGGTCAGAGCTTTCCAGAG , give the reported PBM binding z-score.
Found: 1.84
